Property: CRE luciferase EC50, 1% HSA; scope: individual binders
measured_on: human GLP-1 receptor (human, UniProt P43220)
measurement_notes: cell-based or functional assay
Where no end group is shown, it is not given here.
quantity: CRE luciferase EC50, 1% HSA

binder="HAEGTFTSDVSSYLEGQAAKEFIAWLVEKVKEFY-NH2 [[Glu34,Lys35,Val36,Lys37]-GLP-1-(7-37)-peptidyl-Glu-Phe-Tyr amide]" assay_value="14 pM"
binder="H-HAEGTFTSDVSSYLEGQAAKEFIAWLVEKVGEFLEK [[Glu34,Lys35,Val36]-GLP-1-(7-37)-peptidyl-Glu-Phe-Leu-Glu-Lys]" assay_value="13 pM"
binder="HAEGTFTSDVSSYLEGQAAKEFIAWLVEKVKEF-NH2 [[Glu34,Lys35,Val36,Lys37]-GLP-1-(7-37)-peptidyl-Glu-Phe amide]" assay_value="5 pM"
binder="HGEGTFTSDVSSYLEGEAVKEFIAWLVEKVKEFLG [[Gly8,Glu23,Val25,Glu34,Lys35,Val36,Lys37]-GLP-1-(7-37)-peptidyl-Glu-Phe-Leu-Gly]" assay_value="122 pM"
binder="HAEGTFTSDVSSYLEEEAVKEFIAWLVEKVKEF-NH2 [[Glu22,Glu23,Val25,Glu34,Lys35,Val36,Lys37]-GLP-1-(7-37)-peptidyl-Glu-Phe amide]" assay_value="10 pM"
binder="HAEGTFTSDVSSYLEGQAAKEFIAWLVEKVKEFLEK [[Glu34,Lys35,Val36,Lys37]-GLP-1-(7-37)-peptidyl-Glu-Phe-Leu-Glu-Lys]" assay_value="11 pM"
binder="HGEGTFTSDVSSYLEGEAVKEFIAWLVEKVKEHL-NH2 [[Gly8,Glu23,Val25,Glu34,Lys35,Val36,Lys37]-GLP-1-(7-37)-peptidyl-Glu-His-Leu amide]" assay_value="96 pM"
binder="HAEGTFTSDVSSYLEGEAVREFIAWLVHRVREFLEK [[Glu23,Val25,Arg26,His34,Arg35,Val36,Arg37]-GLP-1-(7-37)-peptidyl-Glu-Phe-Leu-Glu-Lys]" assay_value="14 pM"
binder="HGEGTFTSDVSSYLEEEAVKEFIAWLVEKVKEFL-NH2 [[Gly8,Glu22,Glu23,Val25,Glu34,Lys35,Val36,Lys37]-GLP-1-(7-37)-peptidyl-Glu-Phe-Leu amide]" assay_value="302 pM"
binder="HGEGTFTSDVSSYLEEEAVKEFIAWLVEKVKEKL-NH2 [[Gly8,Glu22,Glu23,Val25,Glu34,Lys35,Val36,Lys37]-GLP-1-(7-37)-peptidyl-Glu-Lys-Leu amide]" assay_value="76 pM"
binder=HAEGTFTNDMTNYLEGEAVKEFIAWLVEKGKEFL-NH2 assay_value="28 pM"
binder="HAEGTFTSDVSSYLEGQAAKEFIAWLVEKVKEFL-NH2 [[Glu34,Lys35,Val36,Lys37]-GLP-1-(7-37)-peptidyl-Glu-Phe-Leu amide]" assay_value="23 pM"
binder="HXEGTFTSDVSSYLEGQAAKEFIAWLVKKXKEFL (Aib at 8, 36; C-terminal amide) [[Aib8,Lys35,Aib36,Lys37]-GLP-1-(7-37)-peptidyl-Glu-Phe-Leu amide]" assay_value="84 pM"

Taken from patent US20150344540A1.
